These entries and their values trace back to patent US11351173B2.

Below is a list of entries, each paired with its recorded activation at 1 µM value.
Biological target: glucocerebrosidase (Gcase) (Homo sapiens, UniProt P04062)
Construct: micellar solution containing 10 nM GCase and 100 nM saposin C
Sequence (P04062 40-536): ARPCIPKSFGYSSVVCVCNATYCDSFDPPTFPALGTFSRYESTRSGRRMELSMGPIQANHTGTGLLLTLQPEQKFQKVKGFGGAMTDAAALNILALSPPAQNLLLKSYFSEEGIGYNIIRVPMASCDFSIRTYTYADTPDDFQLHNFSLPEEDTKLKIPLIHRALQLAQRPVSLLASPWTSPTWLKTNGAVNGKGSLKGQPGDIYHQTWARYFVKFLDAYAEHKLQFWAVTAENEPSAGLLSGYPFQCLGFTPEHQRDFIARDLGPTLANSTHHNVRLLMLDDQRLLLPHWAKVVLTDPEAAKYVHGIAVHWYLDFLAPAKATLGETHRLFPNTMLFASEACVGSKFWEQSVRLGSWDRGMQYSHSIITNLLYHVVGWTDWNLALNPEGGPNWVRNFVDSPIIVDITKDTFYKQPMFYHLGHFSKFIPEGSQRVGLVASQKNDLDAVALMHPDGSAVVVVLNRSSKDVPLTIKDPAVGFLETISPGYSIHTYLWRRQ
Test: Glucocerebrosidase (Gcase) activation assay, 4-methylumbelliferyl-beta-D-glucopyranoside substrate, fluorescence readout
Format: biochemical
Conditions: test compound at 1.0 μM; read-out: Percent Gcase Activation, 1 μM Test Compound

Consider the worked cases shown below.
| compound | activation at 1 µM |
| --- | --- |
| Cc1cc(C)n2ccc(C(=O)NC3CCCc4ccc(C#N)cc43)c2n1 (centres unmarked) | > 60% |
| Cc1cc(C(F)F)n2ccc(C(=O)NC3CCCc4ccccc43)c2n1 (centres unmarked) | > 60% |
| Cc1cc(C)n2ccc(C(=O)NC3CCOc4ccc(-c5ncco5)cc43)c2n1 (centres unmarked) | 30 to 60% |
| CCCO[C@H]1CC[C@H](NC(=O)c2ccn3c(C)cc(Cl)nc23)CC1 | > 60% |
| Cc1cc(C)n2ccc(C(=O)N[C@H]3CC[C@H](Oc4ncccn4)CC3)c2n1 | < 30% |

Per the record, "CCCCCO[C@H]1CC[C@H](NC(=O)c2ccn3c(COC)cc(COC)nc23)CC1" has activation at 1 µM of > 60%

Per the record, "CCCCCO[C@H]1CC[C@@H](NC(=O)c2ccn3c(C)cc(C)nc23)C1" has activation at 1 µM of > 60%

Per the record, "C#CCCCO[C@H]1CC[C@H](NC(=O)c2ccn3c(C)cc(C)nc23)CC1" has activation at 1 µM of > 60%

Per the record, "CC[C@H](C)O[C@H]1CC[C@H](NC(=O)c2ccn3c(C)cc(C)nc23)CC1" has activation at 1 µM of > 60%

Per the record, "Cc1cc(C)n2ccc(C(=O)Nc3ccc(-c4cnn(C)c4)cc3)c2n1" has activation at 1 µM of 30 to 60%
